B1: Kinesin-like protein KIF16B, residues 1213 to 1273; numbered along this chain, Q96L93 (parent)
chain: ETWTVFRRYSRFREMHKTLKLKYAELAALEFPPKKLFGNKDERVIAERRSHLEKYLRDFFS

Variants of: B1
assay_protocol: abundance fitness (aPCA) (normalised: wild type 0, dead -1); higher = more abundant; growth selection in yeast, the domain comes from the species named
measurement_setup: Homo sapiens
metric: abundance fitness
Answer field: number only, no words.

- ETWTVFRRYSRFREMHKTLKLKYAELAALEFPPKKLFGNKDERVIAERRSHLEKYLRHFFS: 0.09

// abundance fitness lookup, variant = `ETWTVFRRYSRFREMHKTLKLKYAELAALEFPPKKLFGNKDERNIAERRSHLEKYLRDFFS` , result: -0.06

// abundance fitness lookup, variant = `ETWTVFRRYSRFREMHKTLKLKYAELAALEFPPKKLFGNKDERVIAIRRSHLEKYLRDFFS` , result: -0.2

// abundance fitness lookup, variant = `ETWTVFRRYSRFREMHKYLKLKYAELAALEFPPKKLFGNKDERVIAERRSHLEKYLRDFFS` , result: 0.508

Sourced from the Human Domainome abundance scans (Beltran et al. 2025)
